- target_or_test_system: T1, cynomolgus monkey OX40 protein (Novoprotein, #CB17) (cynomolgus monkey)
- T1 construct: Bought recombinant protein; also called cyno OX40
- test_summary: ELISA, coated cyno OX40 protein

# binder, Maximum OD / OD
data = [
    ("PR002057 (antibody, human IgG1, V domains shown, no light chain; also called anti-OX40 HCAb antibody) VH: EVQLLESGGGLVQPGGSLRLSCAASGFIFSSYAMSWVRQAPGKGLEWVSAISGGGGSTFYADSVRGRFTISRDNSKNTLYLQMNSLRAEDTAVYYCADGMTGTTDVDYWGQGTLVTVSS", 1.76),
    ("PR002060 (antibody, human IgG1, V domains shown, no light chain; also called anti-OX40 HCAb antibody) VH: EVQLLESGGGLVQPGGSLRLSCAASGFTFSDYAMSWVRQAPGKGLEWVSAISGRGGSTYYADSVRGRFTISRDNSKNTLYLQMTSLRAEDTAVYYCANGMTGTTDVDYWGQGTLVTVSS", 1.94),
    ("PR002075 (antibody, human IgG1, V domains shown, no light chain; also called anti-OX40 HCAb antibody) VH: EVQLVETGGGLIQPGGSLRLSCAASGFTFSSYAMSWVRQAPGKGLEWVSAISGSGGNTYYADSVRGRFTISRDNSKNTLYLQMNSLRAEDTAVYYCANGITGTTDVDYWGQGTRVTVSS", 3.07),
    ("PR002074 (antibody, human IgG1, V domains shown, no light chain; also called anti-OX40 HCAb antibody) VH: EVQLLESGGGLVQPGGSLRLSCAASGFTFSSYAMSWVRQAPGKGLEWVSGISGGGNNTFYADSVRGRFTISRDNSKNTLYLQMNSLRAEDTAVYYCMRGWELPLLENWGQGTLVTVSS", 2.34),
    ("PR002065 (antibody, human IgG1, V domains shown, no light chain; also called anti-OX40 HCAb antibody) VH: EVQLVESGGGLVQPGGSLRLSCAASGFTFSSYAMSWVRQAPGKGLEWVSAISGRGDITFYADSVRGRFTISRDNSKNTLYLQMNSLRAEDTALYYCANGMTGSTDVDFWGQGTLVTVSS", 1.92),
    ("PR002076 (antibody, human IgG1, V domains shown, no light chain; also called anti-OX40 HCAb antibody) VH: EVQLLESGGGLVQPGGSLRLSCAASGFTFSSYAMSWVRQAPGKGLEWVSAISGSGGNTYYADSVRGRFTISRDNSKNTLYLQMNSLRAEDTAVYYCANGMTGTTDVDYWGQGTRVTVSS", 2.05),
    ("PR002055 (antibody, human IgG1, V domains shown, no light chain; also called anti-OX40 HCAb antibody) VH: EVQLLESGGGLVQPGGSLRLSCAASGLTFSSYAMSWVRQAPGKGLEWISAISGGGGSTYYADSVRGRFTISRDNSKNTLYLQMNSLRAEDTAVYYCANGMTGSTDVDYWGQGTLVTVSS", 1.74),
    ("PR002071 (antibody, human IgG1, V domains shown, no light chain; also called anti-OX40 HCAb antibody) VH: EVQLVESGGGLVQPGGSLRLSCAASGFTFSSYAMSWVRQAPGKGLEWVSAISGGGGSIFYADSVRGRFTISRDNSKNTLYLQMNSLRAEDTAVYYCANGMTGTTDVDYWGQGTLVTVSS", 2.93),
]
